Ref: the supplement of paper PMC8253809

List of EC50 (log10 M) values.
tested on: HABS (astrocyte control); experiment: EC50 (inflection of fitted growth-inhibition curve) (log10 M)
Please reply with the value in numeric form only.

Here is how some compounds turned out for EC50 (log10 M).
# compound, system, EC50 (log10 M)
records = [
    ("COC(=O)Nc1nc2cc(C(=O)c3ccccc3)ccc2[nH]1 [MEBENDAZOLE]", "HABS", -6.45),
    ("CCOc1cc(C(C)(C)C)ccc1C1=N[C@@](C)(c2ccc(Cl)cc2)[C@@](C)(c2ccc(Cl)cc2)N1C(=O)N1CCN(CCCS(C)(=O)=O)CC1 [RG7112]", "HABS", -5.4),
    ("O=C(c1ccccc1)c1ccc2nc(NC(=O)c3csc(C4CCN(c5ncnc6ccsc56)CC4)n3)[nH]c2c1", "HABS", -5.18),
    ("CC(C)c1c2cc(-c3ccnc(NC4CCC(NC5CCOCC5)CC4)n3)ccc2nn1C (configuration not stated)", "HABS", -7.04),
]

What does the record list as EC50 (log10 M) for CN(C)C/C=C/C(=O)Nc1cc2c(Nc3ccc(F)c(Cl)c3)ncnc2cc1O[C@H]1CCOC1 [AFATINIB] ? -4.84

What does the record list as EC50 (log10 M) for Cc1c(C2CCN(CCc3ccccc3)CC2)noc1-c1ccc(Cl)cc1 [L-741,742] ? -4.83

What does the record list as EC50 (log10 M) for O=C1NC(=O)C(c2cnc3ccccn23)=C1c1cn2c3c(cc(F)cc13)CN(C(=O)N1CCCCC1)CC2 ? -7.93

What does the record list as EC50 (log10 M) for Cc1noc2c1-c1ccccc1C(c1ccc(Cl)cc1)=N[C@H]2CC(N)=O [CPI-0610] ? -5.3

What does the record list as EC50 (log10 M) for CN1CCCN(C(=O)c2cccc(-c3ccc(/C=C4/C(=O)Nc5ccc(Cl)cc54)o3)c2)CC1 [CX-6258] ? -5.1

What does the record list as EC50 (log10 M) for Cc1ccc(C(=O)Nc2ccc(CN3CCN(C)CC3)c(C(F)(F)F)c2)cc1C#Cc1cnc2cccnn12 [PONATINIB] ? -5.89

----------
system: SUDIPGVI (diffuse intrinsic pontine glioma line); assay: area under dose-response curve of % growth inhibition (log2 RLU vs DMSO / staurosporine), 1e-11 to 1e-4 M (% x log10 M); higher = more growth inhibition
Each entry falls into one class according to its area under dose-response curve; the ranges are low range = under 70, mid range = from 70 up to 200, high range = 200 and over

Observe how each entry below is paired with its result.
# compound, cat
records = [
    ("Fc1ccc(N2CCN(CCC3OCCc4ccccc43)CC2)cc1 (centres undefined)", "low range"),
    ("N#CN=C(NCCCCCCOc1ccc(Cl)cc1)Nc1ccncc1", "high range"),
    ("CO[C@H]1C[C@@H]2CC[C@@H](C)[C@@](O)(O2)C(=O)C(=O)N2CCCC[C@H]2C(=O)O[C@H]([C@H](C)C[C@@H]2CC[C@@H](OCCO)[C@H](OC)C2)CC(=O)[C@H](C)/C=C(\\C)[C@@H](O)[C@@H](OC)C(=O)[C@H](C)C[C@H](C)/C=C/C=C/C=C/1C", "mid range"),
    ("COc1cc(F)ccc1-c1ncnc(Nc2cccc(CS(C)(=N)=O)c2)n1 (centres undefined)", "mid range"),
    ("COCC1(CO)C(=O)C2CCN1CC2 (centres undefined)", "mid range"),
]

Band for Cc1c(C2CCN(CCc3ccccc3)CC2)noc1-c1ccc(Cl)cc1 ? low range

Band for CCCc1cc(C)[nH]c(=O)c1CNC(=O)c1cc(-c2ccnc(N3CCN(C)CC3)c2)cc2c1cnn2C(C)C ? low range

Band for Nc1ccccc1NC(=O)c1ccc(CNc2nccc(-c3cccnc3)n2)cc1 ? mid range

Band for CN(C)C/C=C/C(=O)Nc1ccc(C(=O)Nc2cccc(Nc3ncc(Cl)c(-c4c[nH]c5ccccc45)n3)c2)cc1 ? high range
